system: NCI-H1299; assay: cells; conditions: Homo sapiens, NCI-H1299, 48 h
Description: Antiproliferative activity against human NCI-H1299 cells assessed as inhibition of cell growth incubated for 48 hrs by MTT assay
Consider the following compounds; for each one, report its IC50.
Answers are plain numbers, in nM.

[
  {
    "mol_smiles": "FC1(F)CCN(Cc2cncc(-c3ccc4[nH]nc(-c5nc(-c6ccsc6)c[nH]5)c4c3)c2)C1",
    "subject_of_test": "NCI-H1299",
    "IC50, nM": 1380
  }
]

Please report IC50 for every entry that follows.
1. CC(C)C[C@H](N)COc1cncc(-c2ccc3[nH]nc(-c4nc(-c5ccccc5)c(-c5ccccc5)[nH]4)c3c2)c1
2. CC(C)CC(=O)Nc1cncc(-c2ccc3[nH]nc(-c4nc(-c5ccco5)c[nH]4)c3c2)c1

Outgoing:
2380
1420

====

tested on: NCI-H1299; experiment: cells; settings: Homo sapiens, NCI-H1299, 48 h
pIC50: −log10 of the molar value.
Threshold rule: pIC50 greater than or equal to 6 is criterion met; below that, criterion not met.

[
  {
    "mol_smiles": "FC1(F)CCN(Cc2cncc(-c3ccc4[nH]nc(-c5nc(-c6ccco6)c(-c6ccco6)[nH]5)c4c3)c2)C1",
    "class_name": "criterion met"
  }
]

Incoming: Form field: pIC50 at least 6? Entry: Cc1nc(-c2n[nH]c3ccc(-c4cncc(OC[C@@H](N)CC(C)C)c4)cc23)[nH]c1-c1ccccc1
Outgoing: criterion met

Incoming: Form field: pIC50 at least 6? Entry: CC(C)C[C@H](N)COc1cncc(-c2ccc3[nH]nc(-c4nc(-c5ccco5)c(-c5ccco5)[nH]4)c3c2)c1
Outgoing: criterion not met

Incoming: Form field: pIC50 at least 6? Entry: FC1(F)CCN(Cc2cncc(-c3ccc4[nH]nc(-c5nc(-c6ccccc6)c(-c6ccccc6)[nH]5)c4c3)c2)C1
Outgoing: criterion not met

Incoming: Form field: pIC50 at least 6? Entry: Cc1[nH]nc2ccc(-c3cncc(OC[C@@H](N)CC(C)C)c3)cc12
Outgoing: criterion not met

====

test system: NCI-H1299; assay: cells; conditions: Homo sapiens, NCI-H1299, 48 h
Label label 1 when IC50 < 1000 nM; otherwise label 0.

[
  {
    "mol_smiles": "Cc1nc(-c2n[nH]c3ccc(-c4cncc(NC(=O)CC(C)C)c4)cc23)[nH]c1-c1ccccc1",
    "class_name": "label 0"
  }
]

Incoming: Determine if CC(C)CC(=O)Nc1cncc(-c2ccc3[nH]nc(-c4nc(-c5cccnc5)c[nH]4)c3c2)c1 shows IC50 strictly lower than 1000 nM.
Outgoing: label 1

Incoming: Determine if FC1(F)CCN(Cc2cncc(-c3ccc4[nH]nc(-c5nc(-c6cccnc6)c[nH]5)c4c3)c2)C1 shows IC50 strictly lower than 1000 nM.
Outgoing: label 1

Incoming: Determine if FC1(F)CCN(Cc2cncc(-c3ccc4[nH]nc(-c5nc(-c6cccc(C(F)(F)F)c6)c[nH]5)c4c3)c2)C1 shows IC50 strictly lower than 1000 nM.
Outgoing: label 0

Incoming: Determine if FC1(F)CCN(Cc2cncc(-c3ccc4[nH]nc(-c5nc(-c6ccco6)c[nH]5)c4c3)c2)C1 shows IC50 strictly lower than 1000 nM.
Outgoing: label 1

Incoming: Determine if CC(C)C[C@H](N)COc1cncc(-c2ccc3[nH]nc(-c4nc(-c5ccco5)c[nH]4)c3c2)c1 shows IC50 strictly lower than 1000 nM.
Outgoing: label 1

Incoming: Determine if CC(C)C[C@H](N)COc1cncc(-c2ccc3[nH]nc(-c4nc(-c5ccsc5)c[nH]4)c3c2)c1 shows IC50 strictly lower than 1000 nM.
Outgoing: label 0

Incoming: Determine if CCc1[nH]c(-c2n[nH]c3ccc(-c4cncc(NC(=O)CC(C)C)c4)cc23)nc1C shows IC50 strictly lower than 1000 nM.
Outgoing: label 0
